Property: Ki; scope: individual binders
- measuredTarget: T1, human factor XIIa (human, UniProt P00748 20-615, biotinylated with Biotin Ester (Zymed); sites not stated)
- T1 chain: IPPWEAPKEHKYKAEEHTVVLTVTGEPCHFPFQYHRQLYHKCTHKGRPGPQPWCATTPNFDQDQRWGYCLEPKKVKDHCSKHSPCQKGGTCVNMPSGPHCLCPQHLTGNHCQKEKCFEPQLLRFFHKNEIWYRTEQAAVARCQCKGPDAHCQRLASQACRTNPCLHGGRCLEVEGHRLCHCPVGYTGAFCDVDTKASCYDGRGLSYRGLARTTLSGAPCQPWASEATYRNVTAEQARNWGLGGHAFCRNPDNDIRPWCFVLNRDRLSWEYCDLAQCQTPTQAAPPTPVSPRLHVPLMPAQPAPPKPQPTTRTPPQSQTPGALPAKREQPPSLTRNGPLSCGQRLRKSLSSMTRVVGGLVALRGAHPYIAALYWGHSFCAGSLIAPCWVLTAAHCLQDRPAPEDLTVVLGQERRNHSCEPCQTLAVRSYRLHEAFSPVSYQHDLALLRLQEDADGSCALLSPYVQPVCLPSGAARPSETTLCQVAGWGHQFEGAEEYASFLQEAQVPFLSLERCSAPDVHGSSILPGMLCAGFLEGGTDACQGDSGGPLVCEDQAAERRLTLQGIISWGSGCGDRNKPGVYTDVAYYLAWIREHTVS
- assayComment: enzyme inhibition

| binder | unitName | Ki |
| --- | --- | --- |
| DD105 (protein) EVVREVCSEQAETGPCRAMIWRWYFDVTEGKCAPFFYGGCGGNRNNFDTEEYCMAVCGSAI | nM | 198 |
| DD104 (protein) EVVREVCSEQAETGPCRAMIYRWYFDVTEGKCAPFFYGGCGGNRNNFDTEEYCMAVCGSAI | nM | 237 |
| TW6181 (protein) EVVREVCSEQAETGPCRAMKSRWYFDVTEGKCAPFFYGGCGGNRNNFDTEEYCMAVCGSAI | nM | 1510 |
| BG001 (protein) EVVREVCSEQAETGPCRAMLSRWYFDVTEGKCAPFFYGGCGGNRNNFDTEEYCMAVCGSAI | nM | 489 |
| DD102 (protein) EVVREVCSEQAETGPCRAMIPRWYFDVTEGKCAPFFYGGCGGNRNNFDTEEYCMAVCGSAI | nM | 315 |
| DD103 (protein) EVVREVCSEQAETGPCRAMIFRWYFDVTEGKCAPFFYGGCGGNRNNFDTEEYCMAVCGSAI | nM | 2130 |
| TW6182 (protein) EVVREVCSEQAETGPCRAMIHRWYFDVTEGKCAPFFYGGCGGNRNNFDTEEYCMAVCGSAI | nM | 752 |
| TW6180 (protein) EVVREVCSEQAETGPCRAMFSRWYFDVTEGKCAPFFYGGCGGNRNNFDTEEYCMAVCGSAI | nM | 885 |
| TW6168 (protein) EVVREVCSEQAETGPCRAMILRWYFDVTEGKCAPFFYGGCGGNRNNFDTEEYCMAVCGSAI | nM | 3520 |
| BG012 (protein) EVVREVCSEQAETGPCRAMISTWYFDVTEGKCAPFFYGGCGGNRNNFDTEEYCMAVCGSAI | nM | 40 |
